subject.of.test: Cannabinoid receptor 1 (Rattus norvegicus) (UniProt P20272)
Sequence (P20272 whole entry): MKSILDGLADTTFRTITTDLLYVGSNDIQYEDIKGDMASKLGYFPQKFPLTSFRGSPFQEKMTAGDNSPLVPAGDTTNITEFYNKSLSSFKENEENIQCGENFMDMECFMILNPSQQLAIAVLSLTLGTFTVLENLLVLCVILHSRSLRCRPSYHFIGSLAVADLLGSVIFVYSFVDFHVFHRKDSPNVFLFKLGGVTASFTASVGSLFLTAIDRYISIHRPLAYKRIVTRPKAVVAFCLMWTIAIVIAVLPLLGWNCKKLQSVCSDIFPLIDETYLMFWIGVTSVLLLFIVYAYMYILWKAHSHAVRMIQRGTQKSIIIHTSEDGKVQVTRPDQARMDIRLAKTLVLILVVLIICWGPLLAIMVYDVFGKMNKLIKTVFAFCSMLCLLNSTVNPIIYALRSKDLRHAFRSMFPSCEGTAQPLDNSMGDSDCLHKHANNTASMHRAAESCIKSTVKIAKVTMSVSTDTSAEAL
assay: Displacement of [3H]CP55,940 from CB1 receptor in rat brain cortical membranes at 10 uM
Format: cell membranes
Decision: inhibition >= 10% yields satisfied, all other cases yield not satisfied.

Consider the worked cases shown below.
O=C1/C(=C/c2ccc(Cl)cc2)N=C2SCCCN12 :: satisfied
CCOC(=O)C1CN2C(=O)C(c3ccccc3)(c3ccccc3)N=C2S1 (stereo unspecified) :: satisfied
COc1ccc(/C=C2\N=C3SCCCN3C2=O)c(OC)c1 :: satisfied
CN(C)c1ccc(/C=C2\N=C3SCCCN3C2=O)cc1 :: not satisfied
O=C1/C(=C/c2cccc(Cl)c2)N=C2SCCCN12 :: not satisfied

Now turn to the next compound.
Check this compound for inhibition at or above 10%: `C/C(=C1/N=C2SCCCCN2C1=O)c1ccccc1`
not satisfied
